test system: CD2F1 mice, L1210 leukemia ip, survival T/C; assay: NCI In Vivo Anticancer Drug Screen. Data for tumor model L1210 Leukemia (intraperitoneal) in CD2F1 (CDF1) mice; settings: endpoint: mean survival time; dose: 100.0 mg/kg/injection; schedule: Q01DX001 (ip); vehicle: saline with Tween-80; higher = longer survival
Toxic doses and inconclusive results are not listed.
recordedMetric: T/C

Ask: Request body: readout T/C, system CD2F1 mice, L1210 leukemia ip, survival T/C, query `O=S(=O)(Cc1ccccc1)CS(=O)(=O)Cc1ccccc1` . Return the value.
Result: 98 % of control

Ask: Request body: readout T/C, system CD2F1 mice, L1210 leukemia ip, survival T/C, query OC1CCC2CCC1C2 (stereo unspecified) . Return the value.
Result: 102 % of control

Ask: Request body: readout T/C, system CD2F1 mice, L1210 leukemia ip, survival T/C, query CC1CC(C)(C)[N+](C)=C(CCc2ccccc2)O1 (stereo unspecified) . Return the value.
Result: 93 % of control

Ask: Request body: readout T/C, system CD2F1 mice, L1210 leukemia ip, survival T/C, query OCC1OC(Nc2ncnc3nc[nH]c23)C(O)C1O (stereo unspecified) . Return the value.
Result: 108 % of control

Ask: Request body: readout T/C, system CD2F1 mice, L1210 leukemia ip, survival T/C, query c1ccc(C2COCC2c2ccccc2)cc1 (stereo unspecified) . Return the value.
Result: 86 % of control

Ask: Request body: readout T/C, system CD2F1 mice, L1210 leukemia ip, survival T/C, query `CC(=O)OC/C(=N\Nc1ccc([N+](=O)[O-])cc1[N+](=O)[O-])c1ccccc1` . Return the value.
Result: 86 % of control

Ask: Request body: readout T/C, system CD2F1 mice, L1210 leukemia ip, survival T/C, query `O=C(COc1ccc(Cl)c(Cl)c1)NCCc1cc[n+](Cc2ccc(Cl)cc2S(=O)(=O)F)cc1` . Return the value.
Result: 89 % of control

Ask: Request body: readout T/C, system CD2F1 mice, L1210 leukemia ip, survival T/C, query `Cc1ccc(S(=O)(=O)OCCc2ccccc2)cc1` . Return the value.
Result: 97 % of control

Ask: Request body: readout T/C, system CD2F1 mice, L1210 leukemia ip, survival T/C, query `Nc1nc(N)c(-c2ccc(Cl)c(Cl)c2)c(CP(Cl)(Cl)(Cl)Br)n1` . Return the value.
Result: 98 % of control

Ask: Request body: readout T/C, system CD2F1 mice, L1210 leukemia ip, survival T/C, query `Nc1nc(-c2cccc([N+](=O)[O-])c2)c(N=Nc2ccc([N+](=O)[O-])cc2)s1` . Return the value.
Result: 93 % of control

Ask: Request body: readout T/C, system CD2F1 mice, L1210 leukemia ip, survival T/C, query `CCOC(=O)C(=CC(C(=O)OCC)C(=O)OCC)C(=O)OCC` . Return the value.
Result: 93 % of control

----------
Assignment: determine reported T/C for the given compounds.
tested on: CD2F1 mice, L1210 leukemia ip, survival T/C; assay: NCI In Vivo Anticancer Drug Screen. Data for tumor model L1210 Leukemia (intraperitoneal) in CD2F1 (CDF1) mice; conditions: endpoint: mean survival time; dose: 25.0 mg/kg/injection; schedule: Q04DX002 (ip); vehicle: saline with Tween-80; higher = longer survival
Toxic doses and inconclusive results are not listed.

Ask: Request body: readout T/C, system CD2F1 mice, L1210 leukemia ip, survival T/C, query `CCOC1CCN(CCCn2c3ccccc3c3ccccc32)CC1` . Return the value.
Result: 95 % of control

Ask: Request body: readout T/C, system CD2F1 mice, L1210 leukemia ip, survival T/C, query CC(C)CC(C)OP(=S)(S)OC(C)CC(C)C.[Cd] (stereo not drawn) . Return the value.
Result: 100 % of control

Ask: Request body: readout T/C, system CD2F1 mice, L1210 leukemia ip, survival T/C, query `C[n+]1cccc(C(=O)N/N=C/CCc2ccccc2)c1` . Return the value.
Result: 100 % of control

Ask: Request body: readout T/C, system CD2F1 mice, L1210 leukemia ip, survival T/C, query Cc1ccc(S(=O)(=O)OC2(c3ccc(C(F)(F)F)cc3)C3CCC2CC3)cc1 (stereo not drawn) . Return the value.
Result: 101 % of control

Ask: Request body: readout T/C, system CD2F1 mice, L1210 leukemia ip, survival T/C, query C=C(C)C1CCC2(COS(=O)(=O)c3ccc(C)cc3)CCC3(C)C(CCC4C5(C)CCC(OC6CCCCO6)C(C)(C)C5CCC43C)C12 (stereo not drawn) . Return the value.
Result: 103 % of control

Ask: Request body: readout T/C, system CD2F1 mice, L1210 leukemia ip, survival T/C, query `CCCCCCCCCCCCCCCCCCOCCOCCOCCOCCO` . Return the value.
Result: 91 % of control

Ask: Request body: readout T/C, system CD2F1 mice, L1210 leukemia ip, survival T/C, query `CN(C)c1cc(C(C)(C)C)nc(C(C)(C)C)c1` . Return the value.
Result: 98 % of control

Ask: Request body: readout T/C, system CD2F1 mice, L1210 leukemia ip, survival T/C, query CCCCCCCCCCCCCCCCCCN1C(=O)C2C3CCC(O3)C2C1=O (stereo not drawn) . Return the value.
Result: 98 % of control

Ask: Request body: readout T/C, system CD2F1 mice, L1210 leukemia ip, survival T/C, query CC(=O)OC1CCC2(C)C(=CCC3C2CCC2(C)C(C(=O)CC(O)(C(F)(F)F)C(F)(F)F)CCC32)C1 (stereo not drawn) . Return the value.
Result: 90 % of control

Ask: Request body: readout T/C, system CD2F1 mice, L1210 leukemia ip, survival T/C, query `COc1nn(O)cc(C)c1=N` . Return the value.
Result: 101 % of control

Ask: Request body: readout T/C, system CD2F1 mice, L1210 leukemia ip, survival T/C, query `COCNC(=S)N/N=C/c1ccccn1` . Return the value.
Result: 97 % of control

Ask: Request body: readout T/C, system CD2F1 mice, L1210 leukemia ip, survival T/C, query CC1=NCCCN=C(C)C([N+](=O)[O-])C=NC(C)(C)CN=CC1[N+](=O)[O-].[Ni] (stereo not drawn) . Return the value.
Result: 97 % of control

Ask: Request body: readout T/C, system CD2F1 mice, L1210 leukemia ip, survival T/C, query CCN(CC)C(=S)N1C(=O)C2C3CCC(O3)C2C1=O (stereo not drawn) . Return the value.
Result: 93 % of control
